Target: UniProtKB P22735
Sequence (P22735 1-817): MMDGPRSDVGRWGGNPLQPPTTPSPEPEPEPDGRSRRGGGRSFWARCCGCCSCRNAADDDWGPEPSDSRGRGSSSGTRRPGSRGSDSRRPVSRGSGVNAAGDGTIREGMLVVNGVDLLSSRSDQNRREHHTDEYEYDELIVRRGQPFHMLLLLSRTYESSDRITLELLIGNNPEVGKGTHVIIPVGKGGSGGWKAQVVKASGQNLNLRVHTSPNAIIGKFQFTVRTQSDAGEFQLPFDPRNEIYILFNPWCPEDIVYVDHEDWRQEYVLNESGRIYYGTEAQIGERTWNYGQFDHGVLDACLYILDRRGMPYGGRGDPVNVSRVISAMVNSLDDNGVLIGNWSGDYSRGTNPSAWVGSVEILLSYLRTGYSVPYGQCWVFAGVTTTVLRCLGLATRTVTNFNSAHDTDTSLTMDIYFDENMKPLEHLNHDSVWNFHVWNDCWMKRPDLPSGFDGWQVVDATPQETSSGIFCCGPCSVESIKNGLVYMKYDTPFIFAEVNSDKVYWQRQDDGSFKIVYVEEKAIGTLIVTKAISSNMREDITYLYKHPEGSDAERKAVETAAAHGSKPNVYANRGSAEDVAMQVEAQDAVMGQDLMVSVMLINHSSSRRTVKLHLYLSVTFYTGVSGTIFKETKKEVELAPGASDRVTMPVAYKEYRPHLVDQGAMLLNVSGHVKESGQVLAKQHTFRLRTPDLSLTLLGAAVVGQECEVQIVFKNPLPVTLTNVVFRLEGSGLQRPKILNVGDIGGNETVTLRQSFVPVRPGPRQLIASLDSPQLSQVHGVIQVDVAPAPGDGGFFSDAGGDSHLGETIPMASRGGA
Experiment: Transglutaminase inhibition, IC50 at TG1
Format: biochemical
Settings: Table 1
pIC50: −log10 of the molar value. *1 amine or outer side, *2 acyl side, *3 side chain or, on linkers, in order; H or OH if unused. Where a SMILES comes first, the peptide text is derived from it. [ ]: non-standard residue; d: D form. ξ: configuration not given here. X2 = COC(=O)/C=C/CC[C@H](N[*:1])C(=O)[*:2]; Ile(3ξ) = CCC(C)[C@H](N)C(=O)O
result.type: pIC50

compound="CCOC(=O)/C=C/CC[C@H](NC(=O)OCc1ccccc1)C(=O)N[C@@H](Cc1ccccc1)C(=O)OC [Compound 3]" tgt="UniProtKB P22735" result=6.70
compound="CCC(C)[C@H](NC(=O)[C@@H](NC(=O)[C@H](CC(C)C)NC(=O)[C@H](CO)NC(=O)[C@H](CC/C=C/C(=O)OC)NC(=O)CNC(=O)[C@@H]1CCCN1C(=O)CNC(=O)[C@H](CC(C)C)NC(C)=O)C(C)C)C(=O)NCC(=O)OC (stereo partly drawn) [Compound 8] (Ac-LGPG[X2]SLV[Ile(3ξ)]G-OMe)" tgt="UniProtKB P22735" result="< 4.30"
compound="COC(=O)/C=C/CC[C@H](NC(=O)[C@H](CC(N)=O)NC(C)=O)C(=O)N[C@@H](CCC(=O)O)C(=O)N[C@@H](C)C(=O)N[C@H](C(=O)OC)C(C)C [Compound 7] (Ac-N[X2]EAV-OMe)" tgt="UniProtKB P22735" result="< 4.30"

* * *

Molecular target: recombinant human tissue transglutaminase (His6-rh-TG2) (Homo sapiens)
Sequence (P21980 1-687): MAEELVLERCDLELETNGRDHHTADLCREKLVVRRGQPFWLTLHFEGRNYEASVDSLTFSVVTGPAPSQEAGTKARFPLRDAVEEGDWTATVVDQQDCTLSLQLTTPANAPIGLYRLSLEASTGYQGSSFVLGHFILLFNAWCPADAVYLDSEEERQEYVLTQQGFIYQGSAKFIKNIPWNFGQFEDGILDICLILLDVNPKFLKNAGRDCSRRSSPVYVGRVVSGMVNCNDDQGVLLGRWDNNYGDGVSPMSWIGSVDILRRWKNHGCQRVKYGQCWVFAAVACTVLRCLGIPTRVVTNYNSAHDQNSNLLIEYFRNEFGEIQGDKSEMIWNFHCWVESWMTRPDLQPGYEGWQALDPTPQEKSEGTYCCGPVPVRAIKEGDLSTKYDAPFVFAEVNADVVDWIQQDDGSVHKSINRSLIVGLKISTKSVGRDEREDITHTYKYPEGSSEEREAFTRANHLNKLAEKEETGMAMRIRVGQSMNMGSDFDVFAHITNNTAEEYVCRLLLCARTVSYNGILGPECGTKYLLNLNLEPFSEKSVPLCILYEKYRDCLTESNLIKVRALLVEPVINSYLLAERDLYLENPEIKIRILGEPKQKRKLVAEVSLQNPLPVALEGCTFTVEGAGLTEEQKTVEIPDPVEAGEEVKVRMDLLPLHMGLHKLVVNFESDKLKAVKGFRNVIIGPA
Experiment: Inactivation of human tissue transglutaminase, fluorescence assay, IC50
Format: biochemical
Settings: Table 1; 5 min preincubation, 37° C.
pIC50: −log10 of the molar value. *1 amine or outer side, *2 acyl side, *3 side chain or, on linkers, in order; H or OH if unused. Where a SMILES comes first, the peptide text is derived from it. [ ]: non-standard residue; d: D form. The star is where a group is joined. ξ: configuration not given here. Nle(5E-ene,6-CO2Et) = CCOC(=O)/C=C/CC[C@H](N)C(=O)O; X2 = COC(=O)/C=C/CC[C@H](N[*:1])C(=O)[*:2]; Ile(3ξ) = CCC(C)[C@H](N)C(=O)O; Cbz = O=C(OCc1ccccc1)*
result.type: pIC50

compound="COC(=O)/C=C/CC[C@H](NC(=O)[C@H](CC(N)=O)NC(C)=O)C(=O)N[C@@H](CCC(=O)O)C(=O)N[C@@H](C)C(=O)N[C@H](C(=O)OC)C(C)C [Compound 7] (Ac-N[X2]EAV-OMe)" result_type=pIC50 comparative_sign=< result_number=4.30
compound="CCC(C)[C@H](NC(=O)[C@@H](NC(=O)[C@H](CC(C)C)NC(=O)[C@H](CO)NC(=O)[C@H](CC/C=C/C(=O)OC)NC(=O)CNC(=O)[C@@H]1CCCN1C(=O)CNC(=O)[C@H](CC(C)C)NC(C)=O)C(C)C)C(=O)NCC(=O)OC (some centres unmarked) [Compound 8] (Ac-LGPG[X2]SLV[Ile(3ξ)]G-OMe)" result_type=pIC50 comparative_sign=< result_number=4.30
compound=CCOC(=O)/C=C/CC[C@H](NC(=O)OCc1ccccc1)C(=O)N[C@H](C(=O)N1CCC[C@H]1C(=O)NCCC(C)C)C(C)C result_type=pIC50 comparative_sign== result_number=6.90
compound="CCOC(=O)/C=C/CC[C@H](NC(=O)OCc1ccccc1)C(=O)N[C@H](C(=O)N1CCC[C@H]1C(=O)N[C@@H](CC(C)C)C(=O)OC)C(C)C [Compound 1] (Cbz-[Nle(5E-ene,6-CO2Et)]VPL-OMe)" result_type=pIC50 comparative_sign== result_number=7.52
compound=COC(=O)/C=C/CC[C@H](NC(C)=O)C(=O)N[C@@H](CCC(N)=O)C(=O)N[C@@H](CCC(=O)O)C(=O)N[C@@H](C)C(=O)OC result_type=pIC50 comparative_sign== result_number=6.48
